These entries and their values trace back to patent US9994628B2.

molecular target: HLA-A*02:01 (Homo sapiens, UniProt P04439, D140Y/D185E/D98H/E176V/E277Q/G131W/G231S/I119V/I121R/I166T/I218V/L300P/L318F/N151K/N90K/P208A/P217A/Q86G/Q94H/R138H/R169H/T345S); assay: MHC binding assay: UV-ligand exchange and β2m ELISA (peptide exchange yield, Table 7); conditions: binding of HLA-class I restricted peptides to HLA-A*02:01, UV-ligand exchange
Endpoint Name: Peptide exchange (MHC class I binding score, peptide exchange yield)

>>> data_value("125 (AALEVLAEV; listed as Homo sapiens) [compound 125]")
"+++ (≥50% = +++)"
>>> data_value("21 (YLMDDFSSL; listed as Homo sapiens) [compound 21]")
"+++ (≥50% = +++)"
>>> data_value("208 (HLNNDRNPL; listed as Homo sapiens) [compound 208]")
"++ (≥20% = ++)"
>>> data_value("264 (TLHDQVHLL; listed as Homo sapiens) [compound 264]")
"++ (≥20% = ++)"

###

biological target: HLA-A*02:01 (Homo sapiens, UniProt P04439, D140Y/D185E/D98H/E176V/E277Q/G131W/G231S/I119V/I121R/I166T/I218V/L300P/L318F/N151K/N90K/P208A/P217A/Q86G/Q94H/R138H/R169H/T345S); experiment: MHC binding assay: UV-ligand exchange and β2m ELISA (peptide exchange yield, Table 7); conditions: binding of HLA-class I restricted peptides to HLA-A*02:01, UV-ligand exchange
Endpoint Name: Peptide exchange (MHC class I binding score, peptide exchange yield)

Consider the worked cases shown below.
>>> data_value("58 (HLLGEGAFAQV; listed as Homo sapiens) [compound 58]")
"+++ (≥50% = +++)"
>>> data_value("166 (LLGDSSFFL; listed as Homo sapiens) [compound 166]")
"+++ (≥50% = +++)"
>>> data_value("233 (SLFESLEYL; listed as Homo sapiens) [compound 233]")
"+++ (≥50% = +++)"
>>> data_value("55 (HLFDKIIKI; listed as Homo sapiens) [compound 55]")
"+++ (≥50% = +++)"
>>> data_value("75 (ALLDGALQL; listed as Homo sapiens) [compound 75]")
"+++ (≥50% = +++)"
>>> data_value("250 (LMQDSRLYL; listed as Homo sapiens) [compound 250]")
"+++ (≥50% = +++)"
>>> data_value("162 (GLLGNLLTSL; listed as Homo sapiens) [compound 162]")
"+++ (≥50% = +++)"
>>> data_value("228 (SLLELDGINLRL; listed as Homo sapiens) [compound 228]")
"+++ (≥50% = +++)"

Requested field: Peptide exchange (MHC class I binding score, peptide exchange yield). Item: 198 (ILTNKVVSV; listed as Homo sapiens) [compound 198] ++ (≥20% = ++)

Requested field: Peptide exchange (MHC class I binding score, peptide exchange yield). Item: 185 (TLYQGLPAEV; listed as Homo sapiens) [compound 185] ++ (≥20% = ++)

Requested field: Peptide exchange (MHC class I binding score, peptide exchange yield). Item: 63 (KLLPMVIQL; listed as Homo sapiens) [compound 63] +++ (≥50% = +++)

###

Biological target: HLA-A*02:01 (Homo sapiens, UniProt P04439, D140Y/D185E/D98H/E176V/E277Q/G131W/G231S/I119V/I121R/I166T/I218V/L300P/L318F/N151K/N90K/P208A/P217A/Q86G/Q94H/R138H/R169H/T345S)
Assay: MHC binding assay: UV-ligand exchange and β2m ELISA (peptide exchange yield, Table 7)
Details: binding of HLA-class I restricted peptides to HLA-A*02:01, UV-ligand exchange
Excerpt: Candidate peptides for T cell based therapies according to the present invention were further tested for their MHC binding capacity (affinity). The individual peptide-MHC complexes were produced by UV-ligand exchange, where a UV-sensitive peptide is cleaved upon UV-irradiation, and exchanged with the peptide of interest as analyzed. Only peptide candidates that can effectively bind and stabilize the peptide-receptive MHC molecules prevent dissociation of the MHC complexes. […]
Endpoint Name: Peptide exchange (MHC class I binding score, peptide exchange yield)

Consider the worked cases shown below.
>>> data_value("140 (FLDSQITTV; listed as Homo sapiens) [compound 140]")
"+++ (≥50% = +++)"
>>> data_value("257 (KLIDHQGLYL; listed as Homo sapiens) [compound 257]")
"+++ (≥50% = +++)"
>>> data_value("169 (ALADLSVAV; listed as Homo sapiens) [compound 169]")
"+++ (≥50% = +++)"
>>> data_value("200 (IMPTFDLTKV; listed as Homo sapiens) [compound 200]")
"+++ (≥50% = +++)"
>>> data_value("22 (LMYPYIYHV; listed as Homo sapiens) [compound 22]")
"+++ (≥50% = +++)"
>>> data_value("36 (TVLQELINV; listed as Homo sapiens) [compound 36]")
"+++ (≥50% = +++)"
>>> data_value("278 (VLEDKVLSV; listed as Homo sapiens) [compound 278]")
"+++ (≥50% = +++)"
>>> data_value("171 (LLLLDVPTA; listed as Homo sapiens) [compound 171]")
"++ (≥20% = ++)"

Requested field: Peptide exchange (MHC class I binding score, peptide exchange yield). Item: 221 (IMLNSVEEI; listed as Homo sapiens) [compound 221] ++ (≥20% = ++)

Requested field: Peptide exchange (MHC class I binding score, peptide exchange yield). Item: 48 (KISDFGLATV; listed as Homo sapiens) [compound 48] +++ (≥50% = +++)

Requested field: Peptide exchange (MHC class I binding score, peptide exchange yield). Item: 216 (ALSTVTPRI; listed as Homo sapiens) [compound 216] ++ (≥20% = ++)

Requested field: Peptide exchange (MHC class I binding score, peptide exchange yield). Item: 28 (IKVTDPQLLEL; listed as Homo sapiens) [compound 28] ++ (≥20% = ++)

Requested field: Peptide exchange (MHC class I binding score, peptide exchange yield). Item: 35 (VIIKGLEEI; listed as Homo sapiens) [compound 35] ++ (≥20% = ++)

Requested field: Peptide exchange (MHC class I binding score, peptide exchange yield). Item: 50 (ILLSVLHQL; listed as Homo sapiens) [compound 50] +++ (≥50% = +++)

Requested field: Peptide exchange (MHC class I binding score, peptide exchange yield). Item: 17 (GLLPSAESIKL; listed as Homo sapiens) [compound 17] ++++ (≥75% = ++++)

Requested field: Peptide exchange (MHC class I binding score, peptide exchange yield). Item: 243 (GLAEFQENV; listed as Homo sapiens) [compound 243] ++ (≥20% = ++)

Requested field: Peptide exchange (MHC class I binding score, peptide exchange yield). Item: 45 (FLPVSVVYV; listed as Homo sapiens) [compound 45] +++ (≥50% = +++)

Requested field: Peptide exchange (MHC class I binding score, peptide exchange yield). Item: 16 (SLADLSLLL; listed as Homo sapiens) [compound 16] +++ (≥50% = +++)

Requested field: Peptide exchange (MHC class I binding score, peptide exchange yield). Item: 84 (FLLEREQLL; listed as Homo sapiens) [compound 84] ++++ (≥75% = ++++)

Requested field: Peptide exchange (MHC class I binding score, peptide exchange yield). Item: 3 (RVIDDSLVVGV; listed as Homo sapiens) [compound 3] +++ (≥50% = +++)

Requested field: Peptide exchange (MHC class I binding score, peptide exchange yield). Item: 268 (SLDKDIVAL; listed as Homo sapiens) [compound 268] ++ (≥20% = ++)

Requested field: Peptide exchange (MHC class I binding score, peptide exchange yield). Item: 47 (GLNGFNVLL; listed as Homo sapiens) [compound 47] +++ (≥50% = +++)

Requested field: Peptide exchange (MHC class I binding score, peptide exchange yield). Item: 18 (KTASINQNV; listed as Homo sapiens) [compound 18] ++ (≥20% = ++)

Requested field: Peptide exchange (MHC class I binding score, peptide exchange yield). Item: 254 (ALGDKFLLRV; listed as Homo sapiens) [compound 254] ++ (≥20% = ++)

Requested field: Peptide exchange (MHC class I binding score, peptide exchange yield). Item: 253 (KLLAVIHEL; listed as Homo sapiens) [compound 253] +++ (≥50% = +++)

###

target: HLA-A*02:01 (Homo sapiens, UniProt P04439, D140Y/D185E/D98H/E176V/E277Q/G131W/G231S/I119V/I121R/I166T/I218V/L300P/L318F/N151K/N90K/P208A/P217A/Q86G/Q94H/R138H/R169H/T345S); assay: MHC binding assay: UV-ligand exchange and β2m ELISA (peptide exchange yield, Table 7); conditions: binding of HLA-class I restricted peptides to HLA-A*02:01, UV-ligand exchange
Endpoint Name: Peptide exchange (MHC class I binding score, peptide exchange yield)

>>> data_value("174 (ALYSGDLHAA; listed as Homo sapiens) [compound 174]")
"++ (≥20% = ++)"
>>> data_value("129 (KMASKVTQV; listed as Homo sapiens) [compound 129]")
"++ (≥20% = ++)"
